Target: T1, human MSLN-FL-his protein (human, UniProt Q13421 296-580)
T1 construct: Made in HEK293E cells, purified on nickel column; also called hMSLN-FL-his; human MSLN full-length protein; not shown: His tag
T1 sequence (Q13421 other isoform, or with tags, fused parts or gaps): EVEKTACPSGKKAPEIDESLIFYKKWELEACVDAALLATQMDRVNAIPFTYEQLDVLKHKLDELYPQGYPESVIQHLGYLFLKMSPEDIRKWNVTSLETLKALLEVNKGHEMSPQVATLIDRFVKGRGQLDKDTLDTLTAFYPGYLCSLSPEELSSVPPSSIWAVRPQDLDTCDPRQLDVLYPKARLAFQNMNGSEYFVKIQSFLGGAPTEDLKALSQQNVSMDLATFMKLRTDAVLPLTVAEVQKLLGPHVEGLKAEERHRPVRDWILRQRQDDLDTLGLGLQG
Assay: ELISA, coated antigen, antibody 0.002 nM
Item-by-item account of OD450
recorded_endpoint: OD450

>>> reported_value("S009-F7.66.12 chimeric antibody (antibody, human IgG1, kappa, V domains shown, Human-murine chimeric antibody, human IgG1/kappa constant regions) VH: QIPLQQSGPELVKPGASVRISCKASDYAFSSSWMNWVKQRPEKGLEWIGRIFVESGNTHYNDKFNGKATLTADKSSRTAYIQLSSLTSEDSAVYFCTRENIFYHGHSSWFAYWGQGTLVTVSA VL: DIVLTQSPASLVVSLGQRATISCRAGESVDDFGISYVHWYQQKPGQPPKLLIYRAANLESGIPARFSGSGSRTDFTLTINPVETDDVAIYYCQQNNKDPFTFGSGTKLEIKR")
1.19
>>> reported_value("S009-F7.53.2 chimeric antibody (antibody, human IgG1, kappa, V domains shown, Human-murine chimeric antibody, human IgG1/kappa constant regions) VH: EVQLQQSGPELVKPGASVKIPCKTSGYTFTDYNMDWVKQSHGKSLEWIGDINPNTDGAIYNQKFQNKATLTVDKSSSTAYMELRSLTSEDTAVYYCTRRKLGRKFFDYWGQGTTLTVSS VL: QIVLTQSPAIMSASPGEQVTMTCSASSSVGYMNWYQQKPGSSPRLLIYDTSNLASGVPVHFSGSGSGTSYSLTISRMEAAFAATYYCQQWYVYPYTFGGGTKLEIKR")
0.12
>>> reported_value("S009-F7.21.16 chimeric antibody (antibody, human IgG1, kappa, V domains shown, Human-murine chimeric antibody, human IgG1/kappa constant regions) VH: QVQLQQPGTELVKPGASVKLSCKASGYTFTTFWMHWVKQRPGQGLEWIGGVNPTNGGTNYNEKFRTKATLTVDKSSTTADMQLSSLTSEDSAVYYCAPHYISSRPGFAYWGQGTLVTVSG VL: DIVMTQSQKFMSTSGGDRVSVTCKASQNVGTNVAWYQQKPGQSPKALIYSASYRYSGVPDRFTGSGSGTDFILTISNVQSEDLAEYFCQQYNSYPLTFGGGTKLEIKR")
0.82
